Tested on: OC43
Test: Drug screening: OC43 nucleoprotein staining in infected A549-mRuby cells
Assay type: cell-based, human beta coronavirus OC43
Settings: 10 μM drug, MOI 0.3, 4 days; OC43 staining normalized to no-drug controls; mean of the two screen repeats
Procedure: A549-mRuby cells were seeded (3,000 cells per well) in nine 384-well plates using Multidrop combi. Cells were seeded in a final volume of 30 μl with DMEM+10% BCS. The following day, 20 μl of OC43 were added (MOI 0.3) and incubated at 33° C., 5% CO2 for 1 hour. 50 nl from the Selleck FDA-approved drug library (cat #L1300, Selleck) were added (1:1,000 dilution). Two columns (32 wells) were left uninfected and two columns were treated with DMSO and virus (no drug control). […]
// reported OC43_mean per item
Entry rule: numbers only, all in %.

Lookup result for CS(=O)(=O)CCNCc1ccc(-c2ccc3ncnc(Nc4ccc(OCc5cccc(F)c5)c(Cl)c4)c3c2)o1 ; measured OC43_mean: 9.7

Entry CCC(=O)O[C@]1(C(=O)SCF)[C@H](C)C[C@H]2[C@@H]3C[C@H](F)C4=CC(=O)C=C[C@]4(C)[C@@]3(F)[C@@H](O)C[C@@]21C [Fluticasone propionate] — recorded OC43_mean = 48.8

Lab note: CS(=O)(=O)CCNCc1ccc(-c2ccc3ncnc(Nc4ccc(OCc5cccc(F)c5)c(Cl)c4)c3c2)o1.Cc1ccc(S(=O)(=O)O)cc1.Cc1ccc(S(=O)(=O)O)cc1 [Lapatinib (GW-572016) Ditosylate] gave OC43_mean of 24.8

Note to self: OC43_mean recorded for CC[C@H]1OC(=O)[C@H](C)[C@@H](O[C@H]2C[C@@](C)(OC)[C@@H](O)[C@H](C)O2)[C@H](C)[C@@H](O[C@@H]2O[C@H](C)C[C@H](N(C)C)[C@H]2O)[C@](C)(O)C[C@@H](C)CN(C)[C@H](C)[C@@H](O)[C@]1(C)O was 23.4

Next, consider the following compound.
The compound listed as Cl.Cl.OCCN1CCN(CCC=C2c3ccccc3Sc3ccc(C(F)(F)F)cc32)CC1 (mixture of isomers) [Flupenthixol dihydrochloride] has a reported OC43_mean of 21.0
